In this section we review reported inhibition at 1 µM values for a set of molecules.
# assayedTarget: human μ opiate receptor (Homo sapiens, UniProt P35372)
# Construct: purchased PerkinElmer Life Sciences, Zaventem, Belgium RB-HOM; host or cells: CHO-K1 cells (membrane preparation)
# Sequence (P35372 whole entry): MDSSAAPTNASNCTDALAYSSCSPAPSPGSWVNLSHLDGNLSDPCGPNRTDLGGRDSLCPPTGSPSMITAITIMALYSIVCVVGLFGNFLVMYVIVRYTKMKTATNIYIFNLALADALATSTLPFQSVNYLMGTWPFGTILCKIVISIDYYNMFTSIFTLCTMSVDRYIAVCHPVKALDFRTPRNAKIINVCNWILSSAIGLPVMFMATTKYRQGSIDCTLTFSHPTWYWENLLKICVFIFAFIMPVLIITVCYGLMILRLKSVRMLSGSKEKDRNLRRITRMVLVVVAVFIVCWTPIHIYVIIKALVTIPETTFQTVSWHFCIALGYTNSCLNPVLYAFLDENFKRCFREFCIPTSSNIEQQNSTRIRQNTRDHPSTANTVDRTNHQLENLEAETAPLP
# protocolDetails: Affinity for the human μ opiate receptor ([3H]-naloxone displacement, CHO-K1 receptor membrane preparation, SPA)
# Format: binding
# conditionInfo: 1.5 h, Table 3, to be read in the same way as Table 1; test concentration 1 μM; read-out: μ

>  <molecule>
CN(CCOCC(=O)NCC1CCC(C(c2ccccc2)N2CCOCC2)CC1)S(=O)(=O)c1c(Cl)cccc1Cl (stereo not shown) [Example 706]

>  <inhibition at 1 µM>
7%

$$$$
>  <molecule>
COc1cc(C)c(S(=O)(=O)N2CCCCC2COCC(=O)NCC2CCC(C(CCc3ccccc3)N3CCCC3)CC2)c(C)c1 (stereo not shown) [Example 736]

>  <inhibition at 1 µM>
34%

$$$$
>  <molecule>
O=C(COCC1CCCN1S(=O)(=O)c1c(Cl)cc(Cl)cc1Cl)NCC1CCC(C(c2ccccc2)N2CCOCC2)CC1 (stereo not shown) [Example 710]

>  <inhibition at 1 µM>
24%

$$$$
>  <molecule>
CN1CCN(C(c2ccccc2)C2CCC(NC(=O)COCC3CCCCN3S(=O)(=O)c3c(Cl)cc(Cl)cc3Cl)CC2)CC1 (stereo not shown) [Example 739]

>  <inhibition at 1 µM>
62%

$$$$
>  <molecule>
COc1cc(C)c(S(=O)(=O)N2CCCC(COCC(=O)NC3CCC(C(CCc4ccccc4)N4CCCCC4)CC3)C2)c(C)c1 (stereo not shown) [Example 740]

>  <inhibition at 1 µM>
15%

$$$$
>  <molecule>
COc1cc(C)c(S(=O)(=O)N2CCCC(COCC(=O)NC3CCC(C(c4ccccc4)N4CCCC4)CC3)C2)c(C)c1 (stereo not shown) [Example 654]

>  <inhibition at 1 µM>
53%

$$$$
>  <molecule>
O=C(COC1CCCN(S(=O)(=O)c2c(Cl)cc(Cl)cc2Cl)C1)NCC1CCC(C(c2ccccc2)N2CCOCC2)CC1 (stereo not shown) [Example 707]

>  <inhibition at 1 µM>
28%

$$$$
>  <molecule>
O=C(COC1CCN(S(=O)(=O)c2c(Cl)cc(Cl)cc2Cl)C1)NC1CCC(C(CCc2ccccc2)N2CCOCC2)CC1 (stereo not shown) [Example 666]

>  <inhibition at 1 µM>
6%

$$$$
>  <molecule>
CN(CCOCC(=O)NC1CCC(C(CCc2ccccc2)N2CCCCC2)CC1)S(=O)(=O)c1c(Cl)cc(C(F)(F)F)cc1Cl (stereo not shown) [Example 671]

>  <inhibition at 1 µM>
9%

$$$$
>  <molecule>
O=C(COCC1CCCN1S(=O)(=O)c1c(Cl)cc(Cl)cc1Cl)NC1CCC(C(c2ccccc2)N2CCOCC2)CC1 (stereo not shown) [Example 698]

>  <inhibition at 1 µM>
40%

$$$$

----------
# assayedTarget: bradykinin 1 receptor (B1R) of the rat (Rattus norvegicus, UniProt P97583)
# Construct: expressed in transfected cells; host or cells: CHO K1 cells
# Sequence (P97583 1-337): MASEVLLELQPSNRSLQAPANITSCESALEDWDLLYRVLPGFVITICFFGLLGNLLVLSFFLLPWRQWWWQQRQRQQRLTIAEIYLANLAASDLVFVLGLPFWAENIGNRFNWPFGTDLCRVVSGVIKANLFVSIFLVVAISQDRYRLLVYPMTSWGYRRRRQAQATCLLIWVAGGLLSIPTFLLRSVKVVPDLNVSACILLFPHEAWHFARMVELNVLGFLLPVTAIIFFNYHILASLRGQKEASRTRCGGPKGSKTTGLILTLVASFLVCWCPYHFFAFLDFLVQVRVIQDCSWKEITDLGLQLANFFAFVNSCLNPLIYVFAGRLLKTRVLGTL
# protocolDetails: Functional investigation on the rat bradykinin 1 receptor (B1R), Ca2+ FLIPR assay in CHO K1 rB1R cells
# Assay type: cell-based
# conditionInfo: B1R antagonism rat; test substance 10 μM; Ca2+ FLIPR, CHO K1 rB1R cells

>  <compound>
CN(C)C(c1ccc(F)cc1)C1CCC(NC(=O)COCCN(Cc2ccccc2)S(=O)(=O)c2ccccc2)CC1 (stereo not drawn)

>  <unitsLabel>
%

>  <B1R Ant. r [10 μM] % Inhibition>
8

$$$$
>  <compound>
COc1cc(C)c(S(=O)(=O)N2CCC(OCC(=O)NC3CCC(C(c4cccc(F)c4)N(C)C)CC3)CC2)c(C)c1C (stereo not drawn)

>  <unitsLabel>
%

>  <B1R Ant. r [10 μM] % Inhibition>
−2

$$$$
>  <compound>
COc1ccc(S(=O)(=O)N2Cc3ccccc3CC2COCC(=O)NC2CCC(C(c3ccc(F)cc3)N(C)C)CC2)cc1 (stereo not drawn)

>  <unitsLabel>
%

>  <B1R Ant. r [10 μM] % Inhibition>
20

$$$$
>  <compound>
COc1cc(C)c(S(=O)(=O)N(C)CCOCC(=O)NC2CCC(C(c3cccc(F)c3)N(C)C)CC2)c(C)c1 (stereo not drawn)

>  <unitsLabel>
%

>  <B1R Ant. r [10 μM] % Inhibition>
99

$$$$
>  <compound>
Cc1ccc(S(=O)(=O)N(C)CCOCC(=O)NC2CCC(C(c3cccc(F)c3)N(C)C)CC2)cc1 (stereo not drawn)

>  <unitsLabel>
%

>  <B1R Ant. r [10 μM] % Inhibition>
24

$$$$
>  <compound>
O=C(COC1CCN(S(=O)(=O)c2c(Cl)cc(Cl)cc2Cl)C1)NC1CCC(C(c2ccccc2)N2CCOCC2)CC1 (stereo not drawn)

>  <unitsLabel>
%

>  <B1R Ant. r [10 μM] % Inhibition>
18

$$$$
>  <compound>
COc1ccc(S(=O)(=O)N2CCCCC2CCOCC(=O)NCCC2CCC(C(c3ccc(Cl)cc3)N(C)C)CC2)cc1 (stereo not drawn)

>  <unitsLabel>
%

>  <B1R Ant. r [10 μM] % Inhibition>
33

$$$$
>  <compound>
COc1ccc(S(=O)(=O)N2CCCCC2COCC(=O)NCC2CCC(C(CCc3ccccc3)N(C)C)CC2)cc1 (stereo not drawn)

>  <unitsLabel>
%

>  <B1R Ant. r [10 μM] % Inhibition>
87

$$$$
>  <compound>
CN(C)C(c1ccc(F)cc1)C1CCC(CCNC(=O)COC2CCN(S(=O)(=O)c3ccccc3)CC2)CC1 (stereo not drawn)

>  <unitsLabel>
%

>  <B1R Ant. r [10 μM] % Inhibition>
−14

$$$$
>  <compound>
CN(C)C(c1cccc(F)c1)C1CCC(NC(=O)COCCN(C)S(=O)(=O)c2c(Cl)cc(Cl)cc2Cl)CC1 (stereo not drawn)

>  <unitsLabel>
%

>  <B1R Ant. r [10 μM] % Inhibition>
25

$$$$
>  <compound>
COc1cc(C)c(S(=O)(=O)N2CCCC(OCC(=O)NC3CCC(C(c4ccc(F)cc4)N(C)C)CC3)C2)c(C)c1C (stereo not drawn)

>  <unitsLabel>
%

>  <B1R Ant. r [10 μM] % Inhibition>
14

$$$$
>  <compound>
CN(C)C(c1ccc(F)cc1)C1CCC(CCNC(=O)COCCN(Cc2ccccc2)S(=O)(=O)c2ccccc2)CC1 (stereo not drawn)

>  <unitsLabel>
%

>  <B1R Ant. r [10 μM] % Inhibition>
22

$$$$
>  <compound>
CN(C)C(c1cccc(F)c1)C1CCC(CNC(=O)COCCN(Cc2ccccc2)S(=O)(=O)c2ccccc2)CC1 (stereo not drawn)

>  <unitsLabel>
%

>  <B1R Ant. r [10 μM] % Inhibition>
24

$$$$
>  <compound>
CN(C)C(c1ccc(Cl)cc1)C1CCC(CCNC(=O)COCCN(C)S(=O)(=O)c2ccc(OC(F)(F)F)cc2)CC1 (stereo not drawn)

>  <unitsLabel>
%

>  <B1R Ant. r [10 μM] % Inhibition>
26

$$$$
>  <compound>
COc1ccc(S(=O)(=O)N(C)CCOCC(=O)NCC2CCC(C(CCc3ccccc3)N(C)C)CC2)cc1 (stereo not drawn)

>  <unitsLabel>
%

>  <B1R Ant. r [10 μM] % Inhibition>
50

$$$$
>  <compound>
COc1ccc(S(=O)(=O)N(C)CCOCC(=O)NCC2CCC(C(c3ccccc3)N(C)C)CC2)cc1 (stereo not drawn)

>  <unitsLabel>
%

>  <B1R Ant. r [10 μM] % Inhibition>
22

$$$$
>  <compound>
COc1cc(C)c(S(=O)(=O)N2CCCC(OCC(=O)NCC3CCC(C(CCc4ccccc4)N(C)C)CC3)C2)c(C)c1C (stereo not drawn)

>  <unitsLabel>
%

>  <B1R Ant. r [10 μM] % Inhibition>
36

$$$$
>  <compound>
COc1ccc(S(=O)(=O)N2CCCCC2COCC(=O)NCC2CCC(C(CCc3ccccc3)N(C)C)CC2)cc1OC (stereo not drawn) [Example 559]

>  <unitsLabel>
%

>  <B1R Ant. r [10 μM] % Inhibition>
−12

$$$$
>  <compound>
CN(C)C(CCc1ccccc1)C1CCC(CNC(=O)COCCN2CCN(S(=O)(=O)c3ccccc3)CC2)CC1 (stereo not drawn)

>  <unitsLabel>
%

>  <B1R Ant. r [10 μM] % Inhibition>
−30

$$$$
>  <compound>
CCN(CCOCC(=O)NCC1CCC(C(c2ccc(F)cc2)N(C)C)CC1)S(=O)(=O)c1c(C)cc(OC)c(C)c1C (stereo not drawn)

>  <unitsLabel>
%

>  <B1R Ant. r [10 μM] % Inhibition>
68

$$$$
>  <compound>
CN(C)C(c1cccc(F)c1)C1CCC(NC(=O)COCCN(C)S(=O)(=O)c2ccc(F)cc2)CC1 (stereo not drawn)

>  <unitsLabel>
%

>  <B1R Ant. r [10 μM] % Inhibition>
5

$$$$
